Value source: patent US20230381333A1

Parameter In vitro activity compared to native-type peptide (%), vs GIP: see the listing below.
- measurementTarget: T1, human GIP receptor (human, UniProt P48546 22-466)
- T1 sequence (looked up): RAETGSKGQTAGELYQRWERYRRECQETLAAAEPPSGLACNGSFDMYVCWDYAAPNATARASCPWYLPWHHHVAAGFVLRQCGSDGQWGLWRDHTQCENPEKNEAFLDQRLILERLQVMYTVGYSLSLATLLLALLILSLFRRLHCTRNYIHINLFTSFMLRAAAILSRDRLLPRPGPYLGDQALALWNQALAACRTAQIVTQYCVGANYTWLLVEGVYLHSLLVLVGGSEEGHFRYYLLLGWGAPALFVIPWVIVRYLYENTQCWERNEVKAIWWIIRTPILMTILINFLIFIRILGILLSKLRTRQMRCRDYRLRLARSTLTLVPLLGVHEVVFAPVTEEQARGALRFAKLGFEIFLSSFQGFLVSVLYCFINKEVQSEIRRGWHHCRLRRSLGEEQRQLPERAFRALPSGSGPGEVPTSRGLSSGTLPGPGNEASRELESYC
- testDescription: cell-based or functional assay
Bridge positions count the residues as written; N and C are the ends. Square brackets hold non-standard residues; d marks the D form. Ends that are not written are not given here. Aib = CC(C)(N)C(=O)O
Numeric only. Scale: %

Worked set:
H[Aib]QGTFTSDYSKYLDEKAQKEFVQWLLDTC (bridge 16-20) [triple agonist of SEQ ID NO: 30]: 0.8
Y[Aib]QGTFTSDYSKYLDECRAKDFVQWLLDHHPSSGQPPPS (bridge 16-20) [triple agonist of SEQ ID NO: 66]: 17.2
Y[Aib]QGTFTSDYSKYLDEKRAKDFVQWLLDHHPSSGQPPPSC (bridge 16-20) [triple agonist of SEQ ID NO: 76]: 11.7
Y[Aib]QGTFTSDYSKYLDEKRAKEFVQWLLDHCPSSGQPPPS (bridge 16-20) [triple agonist of SEQ ID NO: 96]: 5.2
H[Aib]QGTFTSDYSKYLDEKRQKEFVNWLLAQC (also: ring formation (underlined residues), positions not given here) [triple agonist of SEQ ID NO: 56]: 0.8
H[Aib]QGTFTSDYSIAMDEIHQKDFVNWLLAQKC (bridge 16-20) [triple agonist of SEQ ID NO: 33]: 10.4

Data point: H[Aib]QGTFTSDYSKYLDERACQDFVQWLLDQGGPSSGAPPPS [triple agonist of SEQ ID NO: 27] ; In vitro activity compared to native-type peptide (%), vs GIP = 0.9

For record H[Aib]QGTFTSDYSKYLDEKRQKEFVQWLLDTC (bridge 16-20) [triple agonist of SEQ ID NO: 52] the listed In vitro activity compared to native-type peptide (%), vs GIP is 0.3

Reported In vitro activity compared to native-type peptide (%), vs GIP for Y[Aib]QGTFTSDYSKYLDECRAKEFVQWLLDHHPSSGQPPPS (bridge 16-20) [triple agonist of SEQ ID NO: 21] was 22.7

The reported value for H[Aib]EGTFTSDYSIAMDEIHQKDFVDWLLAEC (bridge 16-20) [triple agonist of SEQ ID NO: 54] in terms of In vitro activity compared to native-type peptide (%), vs GIP is 0.1
